Source of measurements: the Human Domainome abundance scans (Beltran et al. 2025)

B1: Retinoic acid receptor beta, residues 85 to 161; numbered along this chain, P10826 (parent)
chain: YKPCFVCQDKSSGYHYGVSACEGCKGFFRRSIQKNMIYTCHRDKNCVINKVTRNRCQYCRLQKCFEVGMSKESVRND

- Variants of: B1
- ASSAY_NOTES: abundance fitness (aPCA) (normalised: wild type 0, dead -1); higher = more abundant; growth selection in yeast, the domain comes from the species named
- CONDITION_DETAILS: Homo sapiens
Bucketed by reported abundance fitness, buckets being b0 = under -0.3, b1 = from -0.3 up to 0.003, b2 = 0.003 and over

>>> label_class("YKPCFVCQDKSSGYHYGVSACEGCDGFFRRSIQKNMIYTCHRDKNCVINKVTRNRCQYCRLQKCFEVGMSKESVRND [K25D]")
"b2"
>>> label_class("YKPCFVCQDKSSGYHYGVSACEGCGGFFRRSIQKNMIYTCHRDKNCVINKVTRNRCQYCRLQKCFEVGMSKESVRND [K25G]")
"b1"
>>> label_class("YKPCFVCQDKSSGYHYGVSACEGCKGFFRRSIQKNMIYTCHRDKNCVINKVTRNRSQYCRLQKCFEVGMSKESVRND [C56S]")
"b0"
>>> label_class("YKPCFVCQDTSSGYHYGVSACEGCKGFFRRSIQKNMIYTCHRDKNCVINKVTRNRCQYCRLQKCFEVGMSKESVRND [K10T]")
"b2"
>>> label_class("YKPCFVCQDKSSGYHYGVSACEGCKGFFRRSIQKNMIYTCHRDKNPVINKVTRNRCQYCRLQKCFEVGMSKESVRND [C46P]")
"b0"

Q: State the band of YKPCFVCQDKSSGYHYGVSACKGCKGFFRRSIQKNMIYTCHRDKNCVINKVTRNRCQYCRLQKCFEVGMSKESVRND [E22K]
A: b1

Q: Please give the result for YKPCFVCQDKSSGYHYGVSFCEGCKGFFRRSIQKNMIYTCHRDKNCVINKVTRNRCQYCRLQKCFEVGMSKESVRND [A20F] too.
A: b1

Q: Please give the result for YKPCFVCQDKSSGYHYGVSACEGCKGFFRRSIQKNMIYTCHRDKNCVINKVTRNRCQMCRLQKCFEVGMSKESVRND [Y58M] too.
A: b1

Q: Please give the result for YKPCFVCQDKSSGYHYGVNACEGCKGFFRRSIQKNMIYTCHRDKNCVINKVTRNRCQYCRLQKCFEVGMSKESVRND [S19N] too.
A: b1

Q: Please give the result for YKPCFVFQDKSSGYHYGVSACEGCKGFFRRSIQKNMIYTCHRDKNCVINKVTRNRCQYCRLQKCFEVGMSKESVRND [C7F] too.
A: b0

Q: Please give the result for YKPCFVVQDKSSGYHYGVSACEGCKGFFRRSIQKNMIYTCHRDKNCVINKVTRNRCQYCRLQKCFEVGMSKESVRND [C7V] too.
A: b0
